experiment: Pharmacokinetics in rats after i.v. dosing: plasma and tissue content; format: in vivo; conditions: rat, lung, iv, 3.6 mg/kg, rat 1, 4 h post dose, 3.6 mg/kg i.v., liposomal; read-out: Compound Content in Lung
readout: concentration at 4 h (ng/g)
Report the figure in ng/g without appending any unit label.

concentration at 4 h for Brc1ccc2[nH]cc([C@H]3Nc4ccc(C#CCN5CCCCC5)cc4[C@H]4OCC[C@@H]34)c2c1 (relative stereo) [drawing 54] ?
12100

---

Assay: Pharmacokinetics in rats after i.v. dosing: plasma and tissue content
Format: in vivo
Conditions: rat, kidney, iv, 3.6 mg/kg, rat 2, 4 h post dose, 3.6 mg/kg i.v., liposomal; read-out: Compound Content in Kidney
Procedure: The pharmacokinetics of the compound were evaluated in two rats after dosing at 3.6 mg/kg i.v using a liposomal formulation (1.8 mg/mL). […] Maximum concentrations of approximately 450 ng/ml were attained in plasma. […] Data on the accumulation of the compound in various tissues of the rats is contained in the table below.
readout: concentration at 4 h (ng/g)
Supply the numeric figure in ng/g, leaving out any unit text.

Return reported concentration at 4 h; argument: Brc1ccc2[nH]cc([C@H]3Nc4ccc(C#CCN5CCCCC5)cc4[C@H]4OCC[C@@H]34)c2c1 (relative stereo) [drawing 54]
2200

---

experiment: Pharmacokinetics in rats after i.v. dosing: plasma and tissue content; type: in vivo; conditions: rat, thigh muscle, iv, 3.6 mg/kg, rat 2, 4 h post dose, 3.6 mg/kg i.v., liposomal; read-out: Compound Content in Thigh Muscle
readout: concentration at 4 h (ng/g)
Expressed in ng/g, but write only the number.

Which concentration at 4 h is reported for this compound? Brc1ccc2[nH]cc([C@H]3Nc4ccc(C#CCN5CCCCC5)cc4[C@H]4OCC[C@@H]34)c2c1 (relative stereo) [drawing 54]
700

---

Test: Pharmacokinetics in rats after i.v. dosing: plasma and tissue content
Format: in vivo
Settings: rat, brain, iv, 3.6 mg/kg, rat 1, 4 h post dose, 3.6 mg/kg i.v., liposomal; read-out: Compound Content in Brain
Protocol: The pharmacokinetics of the compound were evaluated in two rats after dosing at 3.6 mg/kg i.v using a liposomal formulation (1.8 mg/mL). […] Maximum concentrations of approximately 450 ng/ml were attained in plasma. […] Data on the accumulation of the compound in various tissues of the rats is contained in the table below.
readout: concentration at 4 h (ng/g)
Value expressed in ng/g; do not type the unit.

Given Brc1ccc2[nH]cc([C@H]3Nc4ccc(C#CCN5CCCCC5)cc4[C@H]4OCC[C@@H]34)c2c1 (relative stereo) [drawing 54] , state its recorded concentration at 4 h.
400

---

Assay: Pharmacokinetics in rats after i.v. dosing: plasma and tissue content
Assay type: in vivo
Settings: rat, plasma, iv; rats, 3.6 mg/kg i.v., liposomal formulation (1.8 mg/mL); read-out: Maximum concentrations in plasma
Procedure: The pharmacokinetics of the compound were evaluated in two rats after dosing at 3.6 mg/kg i.v using a liposomal formulation (1.8 mg/mL). […] Maximum concentrations of approximately 450 ng/ml were attained in plasma. […] Data on the accumulation of the compound in various tissues of the rats is contained in the table below.
readout: Cmax

Query (compound): Brc1ccc2[nH]cc([C@H]3Nc4ccc(C#CCN5CCCCC5)cc4[C@H]4OCC[C@@H]34)c2c1 (relative stereo) [drawing 54] ; field requested: Cmax
~450 ng/mL

---

For each record, write down the corresponding survival at 168 h.
assay: in vivo; parameters: species or system mice; details: mouse, ip, 120 mg/kg
Number in %, nothing else.

Could you tell me which survival at 168 h is on file for Clc1ccc2c(c1)[C@H]1OCC[C@H]1[C@H](c1c[nH]c3ccc(Br)cc13)N2 (relative stereo) ?
100

survival at 168 h for Clc1ccc2c(c1)[C@H]1OCC[C@H]1[C@@H](c1c[nH]c3ccc(Br)cc13)N2 (relative stereo) ?
100

---

Exercise: for every item that follows, state its recorded survival at 168 h.
assay: in vivo; set-up: species or system mice; settings: mouse, ip, 40 mg/kg
Give the number; % is assumed, so skip it.

What value of survival at 168 h has been recorded for this entry: Clc1ccc2c(c1)[C@H]1OCC[C@H]1[C@H](c1c[nH]c3ccc(Br)cc13)N2 (relative stereo)
100

For the compound Clc1ccc2c(c1)[C@H]1OCC[C@H]1[C@@H](c1c[nH]c3ccc(Br)cc13)N2 (relative stereo) , what survival at 168 h is on record?
100
